- TEST PROTOCOL: AUC (0 to 24 hrs) in Sprague-Dawley rat at 25 mg/kg, po measured after 12 hrs by LC-MS/MS analysis
- Type: ADME, organism-based
- SETUP CONDITIONS: in vivo
MEASURE NAME: AUC(0-t) at 12 h (ng·h/mL)
Give bare numbers, in ng·h/mL.

Query string: Request the reported AUC(0-t) at 12 h associated with O=C1CCC(Nc2cccc(N3CCN(CC4CCN(CC(=O)N5CCC(NC(=O)c6n[nH]cc6NC(=O)c6c(Cl)cccc6Cl)CC5)CC4)CC3)c2)C(=O)N1 (stereo unspecified)
Result string: 714

###

Provide the reported DC50 of each item.
- TARGET DESC: Protein cereblon/Cyclin-dependent kinase 9 (Homo sapiens, UniProt P50750+Q96SW2)
- Sequence (P50750 whole entry): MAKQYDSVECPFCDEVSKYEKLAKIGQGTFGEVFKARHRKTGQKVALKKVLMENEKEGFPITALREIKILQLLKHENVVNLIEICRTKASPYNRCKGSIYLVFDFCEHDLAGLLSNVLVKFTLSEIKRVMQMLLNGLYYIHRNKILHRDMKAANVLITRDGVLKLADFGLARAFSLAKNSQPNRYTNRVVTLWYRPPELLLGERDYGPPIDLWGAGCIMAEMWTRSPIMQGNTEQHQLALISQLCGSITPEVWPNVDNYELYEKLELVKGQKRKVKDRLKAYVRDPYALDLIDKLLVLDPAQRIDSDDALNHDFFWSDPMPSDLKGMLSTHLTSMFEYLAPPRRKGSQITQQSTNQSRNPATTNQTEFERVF
- Sequence (Q96SW2 whole entry): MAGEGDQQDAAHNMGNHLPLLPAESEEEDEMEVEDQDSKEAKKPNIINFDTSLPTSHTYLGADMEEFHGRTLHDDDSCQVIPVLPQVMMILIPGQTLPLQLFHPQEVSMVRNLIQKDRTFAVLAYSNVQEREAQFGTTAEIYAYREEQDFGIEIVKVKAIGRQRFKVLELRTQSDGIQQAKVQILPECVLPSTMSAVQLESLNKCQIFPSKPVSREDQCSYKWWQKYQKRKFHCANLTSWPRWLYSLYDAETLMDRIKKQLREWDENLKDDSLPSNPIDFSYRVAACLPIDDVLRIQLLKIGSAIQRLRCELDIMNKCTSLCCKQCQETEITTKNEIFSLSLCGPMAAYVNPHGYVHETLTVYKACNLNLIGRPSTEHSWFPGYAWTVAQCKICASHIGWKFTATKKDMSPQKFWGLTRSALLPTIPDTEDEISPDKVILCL
- TEST PROTOCOL: PROTAC activity at CRBN/CDK9 in human NCI-H69 cells assessed as induction of CDK9 degradation incubated for 8 hrs by Western blot analysis
- Assay type: cell-based
Answers are plain numbers, in nM.

I'm hoping you can list DC50 for every compound here, please.
1. O=C1CCC(Nc2ccc(N3CCN(CC4CCN(CC(=O)N5CCC(NC(=O)c6n[nH]cc6NC(=O)c6c(Cl)cccc6Cl)CC5)CC4)CC3)cc2)C(=O)N1 (stereo not given)
2. O=C1CCC(N2C(=O)c3ccc(N4CCN(CC(=O)N5CCC(CN6CCC(NC(=O)c7n[nH]cc7NC(=O)c7c(Cl)cccc7Cl)CC6)CC5)CC4)cc3C2=O)C(=O)N1 (stereo not given)
3. O=C1CCC(N2C(=O)c3ccc(N4CCN(CC5CCN(CC(=O)N6CCC(NC(=O)c7n[nH]cc7NC(=O)c7c(Cl)cccc7Cl)CC6)CC5)CC4)cc3C2=O)C(=O)N1 (stereo not given)
4. O=C1CCC(Nc2cccc(N3CCN(CC4CCN(CC(=O)N5CCC(NC(=O)c6n[nH]cc6NC(=O)c6c(Cl)cccc6Cl)CC5)CC4)CC3)c2)C(=O)N1 (stereo not given)
5. O=C1CCC(N2C(=O)c3ccc(N4CCN(CC5CCN(C(=O)CN6CCC(NC(=O)c7n[nH]cc7NC(=O)c7c(Cl)cccc7Cl)CC6)CC5)CC4)cc3C2=O)C(=O)N1 (stereo not given)

Result string:
1. 5.67
2. 8.97
3. 3.8
4. 1.09
5. 4.5
